MEASURED ON: Acetylcholinesterase (Rattus norvegicus)
Sequence (P37136 whole entry): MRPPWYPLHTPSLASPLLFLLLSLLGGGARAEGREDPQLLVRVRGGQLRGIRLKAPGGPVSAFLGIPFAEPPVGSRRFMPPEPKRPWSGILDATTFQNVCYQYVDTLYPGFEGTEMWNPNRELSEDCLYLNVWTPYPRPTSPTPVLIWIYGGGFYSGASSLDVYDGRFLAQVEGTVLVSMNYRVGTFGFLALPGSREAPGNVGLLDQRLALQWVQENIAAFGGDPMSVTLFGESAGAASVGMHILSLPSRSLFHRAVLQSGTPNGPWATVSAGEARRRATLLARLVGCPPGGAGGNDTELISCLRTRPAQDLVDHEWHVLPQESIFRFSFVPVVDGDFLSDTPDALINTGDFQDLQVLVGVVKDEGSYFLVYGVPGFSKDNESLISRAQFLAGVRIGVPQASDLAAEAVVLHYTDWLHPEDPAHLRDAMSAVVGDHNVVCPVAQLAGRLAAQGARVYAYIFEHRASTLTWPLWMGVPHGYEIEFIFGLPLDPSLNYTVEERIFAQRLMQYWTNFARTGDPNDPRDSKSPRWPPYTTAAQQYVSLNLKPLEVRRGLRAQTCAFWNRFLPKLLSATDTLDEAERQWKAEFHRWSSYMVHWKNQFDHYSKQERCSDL
ASSAY NAME: Inhibition of rat cortex AChE using acetylthiocholine iodide as substrate after 20 mins by Ellman's method
MEASUREMENT CONTEXT: read-out: IC50
TEST READOUT: IC50 (nM)
Just the number please, in nM, no unit attached.

Here are 6 molecules together with their reported answers.
N#Cc1ccc2[nH]cc(C(=O)CCCN3CCN(c4ccc5c(N)c6c(nc5c4)CCCC6)CC3)c2c1	1980
COC(=O)c1ccc2[nH]cc(CCCCN3CCN(c4cccc5nc6c(c(N)c45)CCCC6)CC3)c2c1	2220
N#Cc1ccc2[nH]cc(CCCCN3CCN(c4ccc5c(N)c6c(nc5c4)CCCC6)CC3)c2c1	5100
N#Cc1ccc2[nH]cc(CCCN3CCN(c4cccc5nc6c(c(N)c45)CCCC6)CC3)c2c1	1820
N#Cc1ccc2[nH]cc(CCCCN3CCN(c4ccc5oc(C(N)=O)cc5c4)CC3)c2c1	21300
Nc1c2c(nc3cccc(N4CCN(CCCCc5c[nH]c6ccccc56)CC4)c13)CCCC2	1440

[in] Which IC50 value belongs to `N#Cc1ccc2[nH]cc(CCCCN3CCN(c4cccc5nc6c(c(N)c45)CCC6)CC3)c2c1` ?
[out] 2360

[in] Request the reported IC50 associated with `N#Cc1ccc2[nH]cc(C(=O)CCCN3CCN(c4ccc5nc6c(c(N)c5c4)CCCC6)CC3)c2c1`
[out] 2910

[in] Name the reported IC50 value associated with the molecule `N#Cc1ccc2[nH]cc(CCCCN3CCN(c4cccc5c(N)c6c(nc45)CCCC6)CC3)c2c1`
[out] 2330

----------
ASSAY NAME: in vitro
MEASUREMENT CONTEXT: PAMPA
Description: Effective permeability of the compound in PBS/ethanol buffer after 12 hrs by PAMPA
# Papp at 12 h values compiled below
Note: unit ×10⁻⁶ cm/s is implicit; provide only the numeric part.

[in] What value of Papp at 12 h has been reported for the following compound? `N#Cc1ccc2[nH]cc(CCCCN3CCN(c4cccc5nc6c(c(N)c45)CCC6)CC3)c2c1`
[out] 4.38

----------
Protein target, amino acids: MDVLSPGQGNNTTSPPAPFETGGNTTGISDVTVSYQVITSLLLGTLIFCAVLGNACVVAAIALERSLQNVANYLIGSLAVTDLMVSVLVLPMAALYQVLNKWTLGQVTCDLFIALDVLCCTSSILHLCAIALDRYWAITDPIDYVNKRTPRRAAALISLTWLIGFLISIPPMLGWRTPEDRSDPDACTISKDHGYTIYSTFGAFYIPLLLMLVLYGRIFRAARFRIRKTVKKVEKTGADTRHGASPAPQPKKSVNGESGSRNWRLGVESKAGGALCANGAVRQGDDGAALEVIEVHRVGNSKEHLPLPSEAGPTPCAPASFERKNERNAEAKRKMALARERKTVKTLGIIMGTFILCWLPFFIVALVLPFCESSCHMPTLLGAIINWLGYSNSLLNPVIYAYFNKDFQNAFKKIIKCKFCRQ
TEST READOUT: EC50 (nM)
Response body: numeric value in nM, unit text excluded.

Field: example entries. Status: answers known.
N#Cc1ccc2[nH]cc(CCCN3CCN(c4cccc5nc6c(c(N)c45)CCCC6)CC3)c2c1	52
Nc1c2c(nc3cccc(N4CCN(CCCCc5c[nH]c6ccc(Cl)cc56)CC4)c13)CCCC2	0.75
N#Cc1ccc2[nH]cc(CCCCN3CCN(c4cccc5nc6c(c(N)c45)CCCCC6)CC3)c2c1	146

Now take the following molecule into account.
[in] Which EC50 value is on record for `N#Cc1ccc2[nH]cc(CCCCN3CCN(c4cccc5c(N)c6c(nc45)CCCC6)CC3)c2c1` ?
[out] 1.55
